The measurements presented in this section are drawn from patent US20250296992A1.

Can you tell me pKd for the items I'm about to list?
# measurement.target: T1, mouse SLITRK6 (mouse, UniProt Q8C110 23-609)
# T1 construct: extracellular domain; also called Mu SLITRK6; not shown: his tag
# T1 sequence (Q8C110 23-609): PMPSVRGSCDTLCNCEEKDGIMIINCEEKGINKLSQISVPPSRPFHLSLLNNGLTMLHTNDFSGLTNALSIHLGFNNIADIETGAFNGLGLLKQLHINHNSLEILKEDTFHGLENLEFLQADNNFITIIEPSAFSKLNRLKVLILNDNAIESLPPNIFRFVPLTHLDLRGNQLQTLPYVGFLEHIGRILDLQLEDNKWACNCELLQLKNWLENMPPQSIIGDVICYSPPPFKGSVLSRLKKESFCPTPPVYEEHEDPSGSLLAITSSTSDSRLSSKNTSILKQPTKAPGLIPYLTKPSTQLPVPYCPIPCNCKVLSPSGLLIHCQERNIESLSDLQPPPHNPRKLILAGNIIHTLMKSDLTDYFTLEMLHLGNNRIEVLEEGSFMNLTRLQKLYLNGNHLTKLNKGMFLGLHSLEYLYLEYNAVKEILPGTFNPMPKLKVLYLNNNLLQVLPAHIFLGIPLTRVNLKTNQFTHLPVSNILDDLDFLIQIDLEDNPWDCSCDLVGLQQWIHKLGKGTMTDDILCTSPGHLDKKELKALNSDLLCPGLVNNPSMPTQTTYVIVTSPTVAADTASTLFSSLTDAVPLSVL
# assay.info: BLI; antigen-his on anti-his tips, antibody or ADC as analyte; 1:1 fit
Numbers only, as −log10 of the molar value.

binder="Sirtratumab (antibody, V domains shown, Prior-art benchmark antibody; also called Sirtratuzumab) VH: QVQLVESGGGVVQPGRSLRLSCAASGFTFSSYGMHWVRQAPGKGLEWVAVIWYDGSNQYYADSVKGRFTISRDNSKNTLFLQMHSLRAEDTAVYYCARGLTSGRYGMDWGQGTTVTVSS VL: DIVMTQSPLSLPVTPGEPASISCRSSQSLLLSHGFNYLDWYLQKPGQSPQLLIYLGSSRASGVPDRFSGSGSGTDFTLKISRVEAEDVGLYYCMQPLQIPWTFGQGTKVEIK" experimental_value=8.46

Could I get pKd for every one of these entries?
1. AGS15E (antibody, V domains shown, drug conjugate; drug-linker and positions not given, also called ADC of Sirtratumab) VH: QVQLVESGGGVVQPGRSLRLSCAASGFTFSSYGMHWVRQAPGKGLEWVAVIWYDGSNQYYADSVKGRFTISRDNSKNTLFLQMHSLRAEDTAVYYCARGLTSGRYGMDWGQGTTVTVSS VL: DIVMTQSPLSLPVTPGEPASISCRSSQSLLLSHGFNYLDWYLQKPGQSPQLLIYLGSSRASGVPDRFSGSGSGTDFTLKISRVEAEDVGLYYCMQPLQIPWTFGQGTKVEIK
2. hu1H2-03-LD038 (antibody, V domains shown, drug-linker LD038 conjugated to the antibody; positions not given, also called hu1H2-03-LALA-LD038; hu1H2-03-LD038 (8)) VH: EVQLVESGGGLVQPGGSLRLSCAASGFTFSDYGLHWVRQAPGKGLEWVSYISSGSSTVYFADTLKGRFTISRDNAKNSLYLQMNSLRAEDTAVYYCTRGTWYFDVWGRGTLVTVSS VL: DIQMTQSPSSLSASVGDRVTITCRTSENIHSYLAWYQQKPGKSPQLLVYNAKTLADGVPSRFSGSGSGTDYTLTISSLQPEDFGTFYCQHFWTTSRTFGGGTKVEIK
3. hu1H2-03 with a LALA mutation (hu1H2-03-LALA) (antibody, V domains shown) VH: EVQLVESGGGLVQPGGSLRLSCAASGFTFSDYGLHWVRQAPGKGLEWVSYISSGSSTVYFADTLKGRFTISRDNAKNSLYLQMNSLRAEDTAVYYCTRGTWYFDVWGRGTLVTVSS VL: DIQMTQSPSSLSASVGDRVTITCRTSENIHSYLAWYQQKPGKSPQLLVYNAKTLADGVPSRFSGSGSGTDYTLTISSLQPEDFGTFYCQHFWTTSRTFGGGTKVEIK

8.72
9.21
9.23
